- Assay System: T1, monomeric human TNFR2 extracellular domain (human, UniProt P20333 23-257)
- T1 construct: extracellular domain; Analyte in the Octet experiments; also called human TNFR2 ECD
- T1 sequence (looked up): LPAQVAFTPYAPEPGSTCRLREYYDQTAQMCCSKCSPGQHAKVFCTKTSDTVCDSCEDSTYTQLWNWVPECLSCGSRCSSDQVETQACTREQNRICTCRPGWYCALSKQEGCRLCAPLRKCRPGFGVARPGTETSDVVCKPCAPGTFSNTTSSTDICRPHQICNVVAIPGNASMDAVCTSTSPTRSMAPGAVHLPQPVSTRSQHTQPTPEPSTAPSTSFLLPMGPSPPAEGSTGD
- Assay Procedure: BLI (Octet Red 96), antibody captured on Fc biosensor, monomeric TNFR2 ECD in solution, 1:1 model
Experimental Endpoint: pKd
// pKd is dimensionless: -log10 of concentration (M)

Binder: chimeric SBT-004 (antibody, V domains shown, VH fused to a human IgG1 Fc domain; also called chSBT-004) VH: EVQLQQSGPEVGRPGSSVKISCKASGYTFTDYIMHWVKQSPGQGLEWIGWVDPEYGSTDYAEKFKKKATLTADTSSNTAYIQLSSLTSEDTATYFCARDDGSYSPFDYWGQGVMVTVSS VL: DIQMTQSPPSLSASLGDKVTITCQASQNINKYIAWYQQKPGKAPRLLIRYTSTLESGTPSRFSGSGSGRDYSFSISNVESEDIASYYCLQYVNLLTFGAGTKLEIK
pKd: 8.44
//
Binder: chimeric SBT-003 (antibody, V domains shown, also called chSBT-003) VH: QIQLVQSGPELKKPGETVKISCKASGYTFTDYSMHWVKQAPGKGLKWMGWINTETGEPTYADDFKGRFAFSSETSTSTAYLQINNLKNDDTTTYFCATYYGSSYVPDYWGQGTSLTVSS VL: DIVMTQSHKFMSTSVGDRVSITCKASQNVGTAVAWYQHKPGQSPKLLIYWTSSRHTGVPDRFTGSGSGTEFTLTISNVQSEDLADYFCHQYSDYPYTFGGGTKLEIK
pKd: 9.60

Here's the next entry for you.
Query: State its pKd: chimeric SBT-004b (antibody, human IgG1, V domains shown, Same heavy chain as chSBT-004 (human IgG1 Fc domain); also called chSBT-004b) VH: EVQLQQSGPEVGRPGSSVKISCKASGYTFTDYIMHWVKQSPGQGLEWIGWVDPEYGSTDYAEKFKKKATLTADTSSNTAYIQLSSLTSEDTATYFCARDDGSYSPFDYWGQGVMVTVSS VL: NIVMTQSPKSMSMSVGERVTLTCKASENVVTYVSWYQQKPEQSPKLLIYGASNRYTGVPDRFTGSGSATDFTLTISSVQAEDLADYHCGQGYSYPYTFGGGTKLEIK
Reply: 8.55
